protocol.notes: In vivo determination of unbound brain-to-plasma partition coefficient (Kp,uu,brain) in rats
experimental.context: male, Sprague-Dawley, rat, plasma, oral, 10 mg/kg, 10 mg/kg oral, 0.5 hr, using rat fu,plasma 0.277, mean +/- SD, read-out: Unbound plasma conc. (Cu,plasma)
measurement.label: concentration at 0.5 h (nM)

1. Cc1cc(OCCc2ccc([C@@H](C)[C@]3(C)CC(=O)NC3=O)cc2)cc(C)n1 :: 138

* * *

protocol.notes: In vivo determination of unbound brain-to-plasma partition coefficient (Kp,uu,brain) in rats
experimental.context: male, Sprague-Dawley, rat, brain, oral, 10 mg/kg, 10 mg/kg oral, 2.0 hr, mean +/- SD, read-out: Total brain conc. (Ctotal,brain)
measurement.label: concentration at 2 h

1) Cc1cc(OCCc2ccc([C@@H](C)[C@]3(C)CC(=O)NC3=O)cc2)cc(C)n1 :: 405 nM
